Test protocol: Serum stability study monitored by HPLC
Assay type: in vitro ADME, human
Assay setup: human, human serum diluted in PBS, 1 h; replicate 2; human serum 50 uL in PBS 500 uL, 37 °C, HPLC 220 nm, caffeine internal standard; read-out: Normalised Linker % (peptide remaining)
Measured endpoint: remaining at 1 h, 175 µM (%)

1) Ac-TSFAEYWNNLSP-NH2 [PMI, reference compound] :: 97.2

---

Test protocol: Serum stability study monitored by HPLC
Type: in vitro ADME, human
Assay setup: human, human serum diluted in PBS, 6 h; replicate 1; human serum 50 uL in PBS 500 uL, 37 °C, HPLC 220 nm, caffeine internal standard; read-out: Normalised Linker % (peptide remaining)
Measured endpoint: remaining at 6 h, 175 µM

1. Ac-TSFAEYWNNLSP-NH2 [PMI, reference compound] :: 47.4%

---

Test protocol: Serum stability study monitored by HPLC
Type: in vitro ADME, human
Assay setup: human, human serum diluted in PBS, 6 h; replicate 2; human serum 50 uL in PBS 500 uL, 37 °C, HPLC 220 nm, caffeine internal standard; read-out: Normalised Linker % (peptide remaining)
Measured endpoint: remaining at 6 h, 175 µM

1) Ac-TSFAEYWNNLSP-NH2 [PMI, reference compound] :: 32.7%

---

Test protocol: Serum stability study monitored by HPLC
Type: in vitro ADME, human
Assay setup: human, human serum diluted in PBS, 1 h; replicate 1; human serum 50 uL in PBS 500 uL, 37 °C, HPLC 220 nm, caffeine internal standard; read-out: Normalised Linker % (peptide remaining)
Measured endpoint: remaining at 1 h, 175 µM (%)

1) Ac-TSFAEYWNNLSP-NH2 [PMI, reference compound] :: 87.2

---

Test protocol: Serum stability study monitored by HPLC
Assay type: in vitro ADME, human
Assay setup: human, human serum diluted in PBS, 72 h; replicate 1; human serum 50 uL in PBS 500 uL, 37 °C, HPLC 220 nm, caffeine internal standard; read-out: Normalised Linker % (peptide remaining)
Starred links: 1 amine or outer side, 2 acyl side, 3 side chain; linkers in the order of their positions; H or OH if unused. Positions of bridges follow the written chain, without caps; N, C: chain ends. Residues, ends and D or L forms follow the SMILES beside them. X1 = Clc1cc([*:1])cc(Cl)c1N=Nc1c(Cl)cc([*:2])cc1Cl
Measured endpoint: remaining at 72 h, 175 µM (%)

1. CC(=O)N[C@H](C(=O)N[C@@H](CO)C(=O)N[C@@H](Cc1ccccc1)C(=O)N[C@@H](C)C(=O)N[C@H]1CSc2cc(Cl)c(c(Cl)c2)N=Nc2c(Cl)cc(cc2Cl)SC[C@@H](C(N)=O)NC(=O)[C@H](CO)NC(=O)[C@H](CC(C)C)NC(=O)CNC(=O)[C@H](CC(N)=O)NC(=O)[C@H](Cc2c[nH]c3ccccc23)NC(=O)[C@H](Cc2ccc(O)cc2)NC1=O)[C@@H](C)O [SP1] (Ac-TSFACYWNGLSC-NH2; linker 5-12 via X1) :: 79.2

---

Test protocol: Serum stability study monitored by HPLC
Type: in vitro ADME, human
Assay setup: human, human serum diluted in PBS, 120 h; replicate 2; human serum 50 uL in PBS 500 uL, 37 °C, HPLC 220 nm, caffeine internal standard; read-out: Normalised Linker % (peptide remaining)
Method: The stability of SP1 in human serum was investigated and compared to the stability of its linear precursor P1 and the parent PMI (Fig. 6). The stability of the peptides at 37 °C in human serum was monitored throughout 5 days by HPLC. Fig. 6 Stability of the precursor peptide P1, the parent PMI and SP1 in human serum at 37 °C, over 5 days, monitored by HPLC at 220 nm. […] 6.2 Serum Stability Studies […] Caffeine was used as an internal standard to enable quantification of degradation over time. […]
Starred links: 1 amine or outer side, 2 acyl side, 3 side chain; linkers in the order of their positions; H or OH if unused. Positions of bridges follow the written chain, without caps; N, C: chain ends. Residues, ends and D or L forms follow the SMILES beside them. X1 = Clc1cc([*:1])cc(Cl)c1N=Nc1c(Cl)cc([*:2])cc1Cl
Measured endpoint: remaining at 120 h, 175 µM (%)

1. CC(=O)N[C@H](C(=O)N[C@@H](CO)C(=O)N[C@@H](Cc1ccccc1)C(=O)N[C@@H](C)C(=O)N[C@H]1CSc2cc(Cl)c(c(Cl)c2)N=Nc2c(Cl)cc(cc2Cl)SC[C@@H](C(N)=O)NC(=O)[C@H](CO)NC(=O)[C@H](CC(C)C)NC(=O)CNC(=O)[C@H](CC(N)=O)NC(=O)[C@H](Cc2c[nH]c3ccccc23)NC(=O)[C@H](Cc2ccc(O)cc2)NC1=O)[C@@H](C)O [SP1] (Ac-TSFACYWNGLSC-NH2; linker 5-12 via X1) :: 48
